# System: 435261-313-R-J1-PDC tumor spheroid viability;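 further: spheroids exposed to compounds for 7 days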
# METHOD SUMMARY: Anticancer human tumor 435261-313-R-J1-PDC patient-derived colon adenocarcinoma cell line growth inhibition [PI3K]; active means viability on the fitted dose curve at most 10% of control; inactive means the rest
# STUDY CONDITIONS: second compound 1 µM; first compound 1 µM; spheroids with HUVEC and MSC
Just give me one of these, please: active, inactive

# count of solved cases: 5
COMPOUND	CLASSIFICATION
CC(C)NCC(C(=O)N1CCN(c2ncnc3c2C(C)CC3O)CC1)c1ccc(Cl)cc1 (stereo not given) + COc1c(OCCCN2CCOCC2)ccc2c3n(c(=NC(=O)c4cnc(N)nc4)nc12)CCN3	active
CC1(C)CCC(CN2CCN(c3ccc(C(=O)NS(=O)(=O)c4ccc(NCC5CCOCC5)c([N+](=O)[O-])c4)c(Oc4cnc5[nH]ccc5c4)c3)CC2)=C(c2ccc(Cl)cc2)C1 + CC(Nc1ncnc2nc[nH]c12)c1cc2cccc(Cl)c2c(=O)n1-c1ccccc1	inactive
CC(Cn1ccc(-c2ccc(C#N)c(Cl)c2)n1)NC(=O)c1cc(C(C)O)[nH]n1 (stereo not given) + CC(Nc1ccc2c(c1)OCCn1cc(N3C(=O)OCC3C(F)F)nc1-2)C(N)=O	inactive
CC1(C)CCC(CN2CCN(c3ccc(C(=O)NS(=O)(=O)c4ccc(NCC5CCOCC5)c([N+](=O)[O-])c4)c(Oc4cnc5[nH]ccc5c4)c3)CC2)=C(c2ccc(Cl)cc2)C1 + CC(Nc1ccc2c(c1)OCCn1cc(N3C(=O)OCC3C(F)F)nc1-2)C(N)=O	inactive
Cn1ncc(Cl)c1-c1cc(C(=O)NC(CN)Cc2cccc(F)c2)sc1Cl (stereo not given) + CC(Nc1ncnc2nc[nH]c12)c1cc2cccc(Cl)c2c(=O)n1-c1ccccc1	inactive

# input Look up the recorded call for CCN1CCN(Cc2ccc(Nc3ncc(F)c(-c4cc(F)c5nc(C)n(C(C)C)c5c4)n3)nc2)CC1 + COc1c(OCCCN2CCOCC2)ccc2c3n(c(=NC(=O)c4cnc(N)nc4)nc12)CCN3 in this test.
# output active

# input How did this test come out for CC1(C)CCC(Nc2ncc(C(F)(F)F)c(-c3c[nH]c4c(P(C)(C)=O)c(C#N)ccc34)n2)CN1 (stereo not given) + COc1c(OCCCN2CCOCC2)ccc2c3n(c(=NC(=O)c4cnc(N)nc4)nc12)CCN3 ?
# output active

# input Look up the recorded call for C[C@@H](NC(=O)c1ncnc(N)c1Cl)c1ncc(C(=O)Nc2cc(C(F)(F)F)c(Cl)cn2)s1 + CC(Nc1ncnc2nc[nH]c12)c1cc2cccc(Cl)c2c(=O)n1-c1ccccc1 in this test.
# output inactive

# input Which outcome was assigned to CCCS(=O)(=O)Nc1ccc(F)c(C(=O)c2c[nH]c3ncc(-c4ccc(Cl)cc4)cc23)c1F + COc1c(OCCCN2CCOCC2)ccc2c3n(c(=NC(=O)c4cnc(N)nc4)nc12)CCN3 in this test?
# output active

# input Outcome logged for CCN1CCN(Cc2ccc(Nc3ncc(F)c(-c4cc(F)c5nc(C)n(C(C)C)c5c4)n3)nc2)CC1 + CC(Nc1ncnc2nc[nH]c12)c1cc2cccc(Cl)c2c(=O)n1-c1ccccc1 in this assay:
# output inactive

FYI, the data here is from PubChem BioAssay AID1963976.
